System: AMPK (hum)
Assay: Kinase profiling AMPK (hum)
Format: biochemical, human
Conditions: 100 micromolar inhibitor concentration; 100 is no change
Kindly return y if reported residual kinase activity, AMPK (hum) is no lower than 70; return n if it is lower.

{"compound": "CC(=O)Nc1nc2ccc(C(F)(F)F)cc2s1 [Compound 01-90]", "label": "y"}
{"compound": "COC(=O)c1cccc(C(=O)Nc2nc3cc(OC)ccc3s2)c1 [Compound 03-108]", "label": "y"}
{"compound": "COc1ccc2sc(NC(=O)c3ccccc3)nc2c1 [Compound 03-95]", "label": "y"}
{"compound": "CC(=O)Nc1nc2ccc(C#N)cc2s1 [Compound 01-94]", "label": "n"}

Where do these numbers come from? They come from patent US10231954B2.
